- target_of_assay: UniProt P03951
- Sequence (P03951 19-387 limits assumed): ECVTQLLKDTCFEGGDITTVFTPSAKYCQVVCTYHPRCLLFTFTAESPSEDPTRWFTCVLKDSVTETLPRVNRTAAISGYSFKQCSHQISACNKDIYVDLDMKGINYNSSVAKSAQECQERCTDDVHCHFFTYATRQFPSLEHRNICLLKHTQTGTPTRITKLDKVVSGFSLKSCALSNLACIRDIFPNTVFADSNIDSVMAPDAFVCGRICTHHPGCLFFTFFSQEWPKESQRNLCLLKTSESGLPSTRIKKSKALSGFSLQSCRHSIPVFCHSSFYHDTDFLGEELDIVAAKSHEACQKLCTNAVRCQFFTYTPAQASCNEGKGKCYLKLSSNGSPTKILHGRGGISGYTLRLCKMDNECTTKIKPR
- Sequence (P03951 388-625 limits assumed): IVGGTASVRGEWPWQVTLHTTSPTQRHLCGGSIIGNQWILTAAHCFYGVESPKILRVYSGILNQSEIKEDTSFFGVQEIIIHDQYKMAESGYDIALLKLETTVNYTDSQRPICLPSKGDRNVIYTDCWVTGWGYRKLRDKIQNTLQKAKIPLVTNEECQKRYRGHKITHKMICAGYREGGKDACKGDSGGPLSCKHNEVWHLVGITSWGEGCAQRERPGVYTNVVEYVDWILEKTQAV
For each entry below, report its IC50 value.
One number for each entry, in nM.

Here's what some known entries look like.
O=C1C=C(c2c(-n3cnnn3)ccc(Cl)c2F)C[C@H]2CC[C@@H](c3nc(-c4csc(CO)n4)c[nH]3)N12 | 47.8
NC(=O)c1ccc(-c2cnc([C@@H]3CC[C@@H]4CC(c5c(-n6cnnn6)ccc(Cl)c5F)=CC(=O)N43)[nH]2)cc1F | 4.1

Shifting focus to the molecule that follows.
Query string: Look up IC50 with UniProt P03951 for this molecule: C[C@H](CO)Oc1nccc(-c2cnc([C@@H]3CC[C@H]4CC(c5c(-n6cnnn6)ccc(Cl)c5F)=CC(=O)N43)[nH]2)c1F (relative stereo)
Result string: 42.3

* * *

For each entry below, report its pIC50 value.
- target_of_assay: Plasma kallikrein (Homo sapiens, UniProt P03952)
- Sequence (P03952 20-390 limits assumed): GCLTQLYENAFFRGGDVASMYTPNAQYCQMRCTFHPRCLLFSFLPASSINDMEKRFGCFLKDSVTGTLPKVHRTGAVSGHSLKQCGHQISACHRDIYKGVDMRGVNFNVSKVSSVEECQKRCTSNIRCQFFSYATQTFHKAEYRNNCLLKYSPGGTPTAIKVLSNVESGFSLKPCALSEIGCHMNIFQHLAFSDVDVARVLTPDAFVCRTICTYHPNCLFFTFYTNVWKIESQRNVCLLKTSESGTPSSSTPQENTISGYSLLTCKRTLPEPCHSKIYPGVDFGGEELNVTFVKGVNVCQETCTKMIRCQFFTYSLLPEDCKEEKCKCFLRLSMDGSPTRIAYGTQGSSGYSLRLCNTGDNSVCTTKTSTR
- Sequence (P03952 391-638 limits assumed): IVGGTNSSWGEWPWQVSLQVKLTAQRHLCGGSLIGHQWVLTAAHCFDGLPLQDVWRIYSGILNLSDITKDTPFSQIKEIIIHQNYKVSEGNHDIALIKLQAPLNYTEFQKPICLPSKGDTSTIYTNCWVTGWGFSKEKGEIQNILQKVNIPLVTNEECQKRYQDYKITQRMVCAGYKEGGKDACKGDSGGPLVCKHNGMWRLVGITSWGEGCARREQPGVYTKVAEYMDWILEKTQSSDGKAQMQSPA
- assay_overview: Kallikrein Inhibition Assay Utilizing a Quenched AMC Peptide Substrate
Answers are plain numbers, as −log10 of the molar value.

Here's what some known entries look like.
C[C@H](CO)Oc1nccc(-c2cnc([C@@H]3CC[C@H]4CC(c5c(-n6cnnn6)ccc(Cl)c5F)=CC(=O)N43)[nH]2)c1F (relative stereo) | 7.40
NC(=O)c1ccc(-c2cnc([C@@H]3CC[C@@H]4CC(c5c(-n6cnnn6)ccc(Cl)c5F)=CC(=O)N43)[nH]2)cc1F | 8.22

Query string: Record request: pIC50 value, item `O=C1C=C(c2c(-n3cnnn3)ccc(Cl)c2F)C[C@H]2CC[C@@H](c3nc(-c4csc(CO)n4)c[nH]3)N12`
Result string: 6.99

Numbers sourced from BindingDB's records for patent US20230295157.
